assayedSystem: T1, extracellular domain of the human leptin receptor (human, UniProt P48357 22-839)
T1 construct: extracellular domain; It is treated as one construct; a tag is not mentioned for the ELISA and cross-linking experiments; also called hECD; recombinant leptin receptor extracellular domain
T1 sequence (looked up): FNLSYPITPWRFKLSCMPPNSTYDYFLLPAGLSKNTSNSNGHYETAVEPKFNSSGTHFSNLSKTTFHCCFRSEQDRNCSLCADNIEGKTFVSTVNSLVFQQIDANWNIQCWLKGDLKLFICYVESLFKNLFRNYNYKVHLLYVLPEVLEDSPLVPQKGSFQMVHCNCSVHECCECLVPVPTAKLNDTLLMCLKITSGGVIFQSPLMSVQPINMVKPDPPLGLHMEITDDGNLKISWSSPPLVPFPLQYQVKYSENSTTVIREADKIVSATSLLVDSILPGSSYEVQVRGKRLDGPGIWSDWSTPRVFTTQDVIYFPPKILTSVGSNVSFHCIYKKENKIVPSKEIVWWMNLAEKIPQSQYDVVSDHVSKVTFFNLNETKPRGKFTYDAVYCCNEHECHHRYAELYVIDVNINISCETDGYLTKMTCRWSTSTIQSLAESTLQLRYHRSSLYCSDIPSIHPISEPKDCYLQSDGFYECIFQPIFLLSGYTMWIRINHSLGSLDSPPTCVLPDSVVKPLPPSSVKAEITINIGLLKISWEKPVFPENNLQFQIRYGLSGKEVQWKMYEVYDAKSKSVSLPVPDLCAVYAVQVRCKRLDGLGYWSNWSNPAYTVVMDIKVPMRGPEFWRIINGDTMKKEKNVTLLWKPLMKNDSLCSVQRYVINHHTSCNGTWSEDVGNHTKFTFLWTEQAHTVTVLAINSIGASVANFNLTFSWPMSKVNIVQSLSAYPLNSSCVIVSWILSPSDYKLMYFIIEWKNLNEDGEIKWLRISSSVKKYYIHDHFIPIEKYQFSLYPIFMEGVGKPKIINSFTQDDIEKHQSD
protocolDescription: SPR; leptin receptor ECD immobilized, antibody as analyte
parameterMeasured: koff

Req: In one line, give reported koff of the entry S2H1 (antibody, V domains shown, also called SC2H1) VH: QVQLLQSGGGVVQPGRSLRLSCAASGFTFSSYGMHWVRQAPGKGLEWVAVISYDGSNKYYADSVKGRFTISRDNSKNTLYLQMNSLRAEDTAVYYCASLYENYFSLWGQGTLVTVSS VL: EIVLTQSPGTLSLSPGERATLSCRASQSVSSNYLAWYQQKPGQAPRLLIYGASSRPTGIPDRFSGSGSGTDFTLTISRLEPEDFAVYYCQQYAASPLTFGGGTKLEIK .
Resp: 0.000271 s⁻¹
